Target or system: T1, biotinylated cynoPD1-ECD-Biotin (cynomolgus)
T1 construct: extracellular domain; also called cyPD1
Protocol notes: ELISA on coated cynoPD1-ECD-Biotin
So I've got a bunch of binders here, and I need their EC50 values.
Number only, in µg/mL; omit the unit.

# EC50 lookup, item PD1-0069 (antibody, V domains shown) VH: QVQLQQSGPELVRPGVSVKISCKGSGYTFTDYAMHWVKQSHARTLEWIGVISTYSGDTNYNQKFKDKATMTVDKSSSTAYLELARMTSEDSAIYYCARLGITTGFAYWGQGTLVTVSA VL: DIVLTQSPASLAVSLGQRATISCRASKGVSTSSYSFMHWYQQKPRQPPKLLIKYASYLESGVPARFSGSGSGTDFTLNIHPVEEEDAATYYCHHSREFPWTFGGGTKLEIK
0.0227

Dear colleague, I am looking for the recorded EC50 of the following binder: PD1-0073 (antibody, V domains shown) VH: EVKLVESGGGLVKPGGSLKLSCAASGFTFSNYGMSWIRQTPEKGLEWVATISGGGRDTYYPDSVKGRFTISRDNVKNNLYLQMSSLRSEDTAFYYCASYYYGIDYWGQGTSVTVSS VL: DIVMTQPHKFMSTSVGDRVRITCKASQDVTTAVAWYQQKPGQSPKLLIYWASTRHTGVPDRFTGSGSGTEFTLTISSVQAEDLALYYCQQHYSIPWTFGGGTKLEIK
0.0083

I am curious: what EC50 value has been reported for PD1-0103 (antibody, V domains shown, Mouse monoclonal antibody) VH: EVILVESGGGLVKPGGSLKLSCAASGFSFSSYTMSWVRQTPEKRLDWVATISGGGRDIYYPDSVKGRFTISRDNAKNTLYLEMSSLMSEDTALYYCVLLTGRVYFALDSWGQGTSVTVSS VL: KIVLTQSPASLPVSLGQRATISCRASESVDTSDNSFIHWYQQRPGQSPKLLIYRSSTLESGVPARFSGSGSRTDFTLTIDPVEADDVATYYCQQNYDVPWTFGGGTKLEIK ?
0.0369
